- SYSTEM: Somatostatin receptor type 1 (Homo sapiens)
- Sequence (P30872 whole entry): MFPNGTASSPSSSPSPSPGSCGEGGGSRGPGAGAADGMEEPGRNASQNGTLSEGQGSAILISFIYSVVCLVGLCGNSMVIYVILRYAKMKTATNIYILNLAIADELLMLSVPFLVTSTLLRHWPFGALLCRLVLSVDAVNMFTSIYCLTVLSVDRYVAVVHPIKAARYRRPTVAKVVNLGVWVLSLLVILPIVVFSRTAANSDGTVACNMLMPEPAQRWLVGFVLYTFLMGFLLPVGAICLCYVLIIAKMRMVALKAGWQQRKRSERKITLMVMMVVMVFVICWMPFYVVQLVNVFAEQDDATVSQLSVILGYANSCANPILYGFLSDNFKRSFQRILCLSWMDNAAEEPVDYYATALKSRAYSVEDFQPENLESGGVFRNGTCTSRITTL
Recorded IC50, one value per entry.

| ENTRY SMILES | IC50 |
| --- | --- |
| C[C@@H](O)[C@H](NC(=O)[C@@H]1CSSC[C@@H](NC(=O)[C@@H](N)Cc2ccc(O)cc2)C(=O)N[C@@H](Cc2cccnc2)C(=O)N[C@H](Cc2c[nH]c3ccccc23)C(=O)N[C@@H](CCCCN)C(=O)N[C@@H]([C@@H](C)O)C(=O)N1)C(N)=O | 1000 nM |
| CC(C)[C@@H]1NC(=O)[C@H](CCCCN)NC(=O)[C@@H](Cc2c[nH]c3ccccc23)NC(=O)[C@H](Cc2ccc(O)cc2)NC(=O)[C@H](NC(=O)[C@@H](N)Cc2ccc3ccccc3c2)CSSC[C@@H](C(=O)N[C@H](C(N)=O)[C@@H](C)O)NC1=O | 2160 nM |

----------
- SYSTEM: Somatostatin receptor type 4 (Homo sapiens, UniProt P31391)
- Sequence (P31391 whole entry): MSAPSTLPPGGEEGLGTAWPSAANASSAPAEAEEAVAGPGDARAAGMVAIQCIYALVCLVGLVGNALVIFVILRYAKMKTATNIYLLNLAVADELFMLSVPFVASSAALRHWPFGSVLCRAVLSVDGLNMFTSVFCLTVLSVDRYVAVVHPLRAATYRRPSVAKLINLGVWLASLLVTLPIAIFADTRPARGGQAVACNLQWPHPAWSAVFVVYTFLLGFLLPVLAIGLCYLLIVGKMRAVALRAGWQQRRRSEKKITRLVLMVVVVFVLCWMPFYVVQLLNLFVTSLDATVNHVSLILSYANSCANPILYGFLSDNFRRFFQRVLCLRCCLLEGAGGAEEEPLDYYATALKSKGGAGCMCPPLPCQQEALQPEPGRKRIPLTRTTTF
- METHOD DESCRIPTION: Binding affinity towards cloned human somatostatin 4 (hsst) receptor
pIC50: −log10 of the molar value. Positions of bridges follow the written chain, without caps; N, C: chain ends. Non-standard residues stand in square brackets, D forms with d. Residues, ends and D or L forms follow the SMILES beside them. dPhe(4-Cl) = N[C@H](Cc1ccc(Cl)cc1)C(=O)O; Dip = N[C@H](C(=O)O)C(c1ccccc1)c1ccccc1; 2Nal = N[C@@H](Cc1ccc2ccccc2c1)C(=O)O; 3Pal = N[C@@H](Cc1cccnc1)C(=O)O
RESULT TYPE: pIC50

| COMPOUND | RESULT TYPE | NUMBER |
| --- | --- | --- |
| C[C@@H](O)[C@@H]1NC(=O)[C@H](CCCCN)NC(=O)[C@@H](Cc2c[nH]c3ccccc23)NC(=O)[C@H](Cc2ccc(O)cc2)NC(=O)[C@H](NC(=O)[C@H](N)Cc2ccc3ccccc3c2)CSSC[C@@H](C(=O)N[C@@H](Cc2ccc3ccccc3c2)C(N)=O)NC1=O | pIC50 | 6.22 |
| CC(C)[C@@H]1NC(=O)[C@H](CCCCN)NC(=O)[C@@H](Cc2c[nH]c3ccccc23)NC(=O)[C@H](Cc2cccnc2)NC(=O)[C@H](NC(=O)[C@@H](N)Cc2ccc3ccccc3c2)CSSC[C@@H](C(=O)N[C@H](C(N)=O)C(c2ccccc2)c2ccccc2)NC1=O (H-[2Nal][dC][3Pal][dW]KVC[Dip]-NH2; disulfide 2-7) | pIC50 | 6.00 |
| CC(C)NC(=O)[C@@H]1CSSC[C@@H](NC(=O)[C@@H](N)Cc2ccc3ccccc3c2)C(=O)N[C@@H](Cc2ccc(O)cc2)C(=O)N[C@H](Cc2c[nH]c3ccccc23)C(=O)N[C@@H](CCCCN)C(=O)N[C@@H](C(C)C)C(=O)N1 | pIC50 | 6.00 |
| CC(=O)N[C@@H](Cc1ccc2ccccc2c1)C(=O)N[C@@H]1CSSC[C@@H](C(=O)N[C@@H](Cc2ccc3ccccc3c2)C(N)=O)NC(=O)[C@H](C(C)C)NC(=O)[C@H](CCCCN)NC(=O)[C@@H](Cc2c[nH]c3ccccc23)NC(=O)[C@H](Cc2ccc(O)cc2)NC1=O (Ac-[2Nal][dC]Y[dW]KVC[2Nal]-NH2; disulfide 2-7) | pIC50 | 6.00 |
| CC(C)[C@@H]1NC(=O)[C@H](CCCCN)NC(=O)[C@@H](Cc2c[nH]c3ccccc23)NC(=O)[C@H](Cc2c[nH]cn2)NC(=O)[C@H](NC(=O)[C@@H](N)Cc2ccc3ccccc3c2)CSSC[C@@H](C(=O)N[C@@H](Cc2ccc3ccccc3c2)C(N)=O)NC1=O (H-[2Nal][dC]H[dW]KVC[2Nal]-NH2; disulfide 2-7) | pIC50 | 6.03 |
| CC(C)[C@H](NC(=O)[C@H](CCCCN)NC(=O)[C@@H](Cc1c[nH]c2ccccc12)NC(=O)[C@H](Cc1ccc(O)cc1)NC(=O)[C@@H](Cc1ccc(Cl)cc1)NC(=O)[C@@H](N)Cc1ccc2ccccc2c1)C(=O)N[C@@H](Cc1ccccc1)C(=O)N[C@H](C(N)=O)[C@@H](C)O (H-[2Nal][dPhe(4-Cl)]Y[dW]KVFT-NH2) | pIC50 | 5.55 |
| CC(C)[C@@H]1NC(=O)[C@H](CCCCN)NC(=O)[C@@H](Cc2c[nH]c3ccccc23)NC(=O)[C@H](Cc2cccnc2)NC(=O)[C@H](NC(=O)[C@@H](N)Cc2ccc3ccccc3c2)CSSC[C@@H](C(=O)N[C@@H](Cc2ccc3ccccc3c2)C(N)=O)NC1=O (H-[2Nal][dC][3Pal][dW]KVC[2Nal]-NH2; disulfide 2-7) | pIC50 | 6.00 |
